Assign relative viability to each entry below.
Tested on: NCI-H1703
Assay: relative viability (nuclei count vs DMSO), 5 days (fraction); higher = more cells survive
Conditions: first compound 0.02 µM
# answer = number (no unit)

Find the measured relative viability of CN1CCN(CCOc2cc(OC3CCOCC3)c3c(Nc4c(Cl)ccc5c4OCO5)ncnc3c2)CC1 [Saracatinib] + O=C(c1cc(Cc2n[nH]c(=O)c3ccccc23)ccc1F)N1CCN(C(=O)C2CC2)CC1 [Olaparib] (partner 8 µM) and report it.
0.425

Find the measured relative viability of CCNC(=O)c1noc(-c2cc(C(C)C)c(O)cc2O)c1-c1ccc(CN2CCOCC2)cc1 [Luminespib] + COc1cc2c(Oc3ccc(NC(=O)C4(C(=O)Nc5ccc(F)cc5)CC4)cc3F)ccnc2cc1OCCCN1CCOCC1 [Foretinib] (partner 0.25 µM) and report it.
0.396

Numbers sourced from the supplement of paper PMC10307832.
